This collection of values is drawn from patent US10807985B2.

- assay-system: PDGFRA D842V (Homo sapiens (Human), UniProt P16234, D842V)
- Sequence (P16234 24-1089 D842V): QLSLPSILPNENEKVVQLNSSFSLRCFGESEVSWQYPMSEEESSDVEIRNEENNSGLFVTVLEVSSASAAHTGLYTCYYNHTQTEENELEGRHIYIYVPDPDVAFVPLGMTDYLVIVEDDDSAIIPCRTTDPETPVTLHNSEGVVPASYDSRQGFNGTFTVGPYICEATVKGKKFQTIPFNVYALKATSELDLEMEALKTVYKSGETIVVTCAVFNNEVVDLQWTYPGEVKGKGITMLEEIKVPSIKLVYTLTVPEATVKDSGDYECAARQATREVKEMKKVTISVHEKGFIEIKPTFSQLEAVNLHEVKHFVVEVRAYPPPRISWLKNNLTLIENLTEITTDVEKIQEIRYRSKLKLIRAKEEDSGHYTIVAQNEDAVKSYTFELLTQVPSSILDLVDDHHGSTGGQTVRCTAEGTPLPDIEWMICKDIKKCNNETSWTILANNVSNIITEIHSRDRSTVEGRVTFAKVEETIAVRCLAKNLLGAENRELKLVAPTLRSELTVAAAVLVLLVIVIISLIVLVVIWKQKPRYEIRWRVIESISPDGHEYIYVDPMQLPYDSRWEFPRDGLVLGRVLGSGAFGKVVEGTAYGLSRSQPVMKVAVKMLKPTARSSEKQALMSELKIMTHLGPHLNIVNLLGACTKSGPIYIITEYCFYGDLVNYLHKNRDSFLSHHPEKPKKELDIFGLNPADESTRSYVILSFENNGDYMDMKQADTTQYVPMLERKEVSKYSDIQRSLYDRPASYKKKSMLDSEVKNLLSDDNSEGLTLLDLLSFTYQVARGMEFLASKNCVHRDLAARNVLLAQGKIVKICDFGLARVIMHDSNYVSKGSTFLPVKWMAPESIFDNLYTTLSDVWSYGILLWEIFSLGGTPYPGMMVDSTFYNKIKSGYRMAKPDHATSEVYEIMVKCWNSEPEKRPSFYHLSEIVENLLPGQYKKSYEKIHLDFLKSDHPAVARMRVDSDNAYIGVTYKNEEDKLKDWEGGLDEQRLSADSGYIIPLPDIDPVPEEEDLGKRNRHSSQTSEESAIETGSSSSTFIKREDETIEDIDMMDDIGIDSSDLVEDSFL
- test-name: PDGFRA D842V assay at Km (Caliper electrophoretic mobility shift)
- study-conditions: biochemical, 15 uM ATP (Km), 90 minutes at 25 C; read-out: INH PDFGRA D842V

smiles-notation: Cn1cc(-c2cc3c(N4CCN(c5ncc([C@@](C)(N)c6ccccc6)cn5)CC4)ncnn3c2)cn1
assay-system: PDGFRA D842V (Homo sapiens (Human), UniProt P16234, D842V)
IC50: < 1 nM
--
smiles-notation: Cn1cc(-c2cc3c(N4CCN(c5ncc([C@@](C)(O)c6c(F)cc(F)cc6F)cn5)CC4)ncnn3c2)cn1
assay-system: PDGFRA D842V (Homo sapiens (Human), UniProt P16234, D842V)
IC50: < 1 nM
--
smiles-notation: Cn1cc(-c2cc3c(N4CCN(c5ncc(C(C)(C)c6ccccc6)cn5)CC4)ncnn3c2)cn1
assay-system: PDGFRA D842V (Homo sapiens (Human), UniProt P16234, D842V)
IC50: 1.01 to 10 nM
--
smiles-notation: Cn1cc(-c2cc3c(N4CCN(c5ncc([C@](C)(O)c6ccc(Cl)cc6)cn5)CC4)ncnn3c2)cn1
assay-system: PDGFRA D842V (Homo sapiens (Human), UniProt P16234, D842V)
IC50: 1.01 to 10 nM
--
smiles-notation: CN(C)C(=O)c1ccc(-c2cc3c(N4CCN(c5ncc(Cc6ccccc6)cn5)CC4)ncnn3c2)cc1
assay-system: PDGFRA D842V (Homo sapiens (Human), UniProt P16234, D842V)
IC50: < 1 nM

====

- assay-system: D816V KIT (Homo sapiens (Human), UniProt P10721, D816V)
- Sequence (P10721 26-976 D816V): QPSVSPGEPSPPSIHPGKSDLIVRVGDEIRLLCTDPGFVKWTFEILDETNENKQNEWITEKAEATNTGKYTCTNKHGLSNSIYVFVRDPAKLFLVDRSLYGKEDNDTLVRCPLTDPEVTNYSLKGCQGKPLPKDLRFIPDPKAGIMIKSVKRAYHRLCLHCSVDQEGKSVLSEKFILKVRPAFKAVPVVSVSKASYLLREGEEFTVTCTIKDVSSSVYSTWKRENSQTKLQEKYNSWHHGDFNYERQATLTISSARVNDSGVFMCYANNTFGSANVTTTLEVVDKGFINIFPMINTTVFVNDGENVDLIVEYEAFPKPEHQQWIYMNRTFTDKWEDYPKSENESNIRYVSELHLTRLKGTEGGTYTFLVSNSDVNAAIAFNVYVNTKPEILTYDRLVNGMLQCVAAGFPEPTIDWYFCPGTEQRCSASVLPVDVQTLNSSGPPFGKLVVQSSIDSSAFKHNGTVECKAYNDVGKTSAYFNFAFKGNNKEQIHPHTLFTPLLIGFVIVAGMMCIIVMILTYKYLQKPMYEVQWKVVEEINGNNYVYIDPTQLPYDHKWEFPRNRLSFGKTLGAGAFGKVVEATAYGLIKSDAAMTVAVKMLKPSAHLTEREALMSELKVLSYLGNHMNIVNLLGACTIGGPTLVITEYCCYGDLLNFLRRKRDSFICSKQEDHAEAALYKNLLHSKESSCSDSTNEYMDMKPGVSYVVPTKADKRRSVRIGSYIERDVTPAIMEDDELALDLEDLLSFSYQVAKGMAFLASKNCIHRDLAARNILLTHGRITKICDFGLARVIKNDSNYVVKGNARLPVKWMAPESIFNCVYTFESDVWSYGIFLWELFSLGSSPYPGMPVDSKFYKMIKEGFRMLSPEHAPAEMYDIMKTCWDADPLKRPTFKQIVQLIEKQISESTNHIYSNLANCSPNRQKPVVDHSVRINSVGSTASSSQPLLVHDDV
- test-name: KIT D816V assay at Km (Caliper electrophoretic mobility shift)
- study-conditions: biochemical, 15 uM ATP (Km), 90 minutes at 25 C; read-out: INH KIT D816V
value-kind: IC50

compound: CO[C@@](C)(c1ccc(F)cc1)c1cnc(N2CCN(c3ncnn4cc(-c5cnn(C)c5)cc34)CC2)nc1 [Compound 67]
value-kind: IC50
observed: 10 to 100 nM
//
compound: CCn1cc(-c2cc3c(N4CCN(c5ncc([C@@](C)(N)c6ccc(F)cc6)cn5)CC4)ncnn3c2)cn1 [Compound 63]
value-kind: IC50
observed: < 1 nM
//
compound: CC[C@H](c1ccc(F)cc1)c1cnc(N2CCN(c3ncnn4cc(-c5cnn(C)c5)cc34)CC2)nc1 (single isomer, unassigned) [Compound 40]
value-kind: IC50
observed: 1.01 to 10 nM
//
compound: Cn1cc(-c2cc3c(N4CCN(c5ncc([C@](O)(c6ccc(F)cc6)C(F)F)cn5)CC4)ncnn3c2)cn1 [Compound 118]
value-kind: IC50
observed: 1.01 to 10 nM
//
compound: CN(C)C(=O)c1ccc(-c2cc3c(N4CCN(c5ncc(Cc6ccccc6)cn5)CC4)ncnn3c2)cc1 [Compound 98]
value-kind: IC50
observed: < 1 nM
//
compound: Cc1ccc(-c2cc3c(N4CCN(c5ncc([C@@](C)(O)c6ccc(F)cc6)cn5)CC4)ncnn3c2)cn1 [Compound 60]
value-kind: IC50
observed: 1.01 to 10 nM
//
compound: Cn1cc(-c2cn3ncnc(N4CCN(c5ncc([C@](C)(O)c6ccc(F)cc6)cn5)CC4)c3c2F)cn1 [Compound 89]
value-kind: IC50
observed: > 100 nM
//
compound: Cn1cc(-c2cc3c(N4CCN(c5ncc([C@](C)(O)c6c(F)cc(F)cc6F)cn5)CC4)ncnn3c2)cn1 [Compound 115]
value-kind: IC50
observed: 1.01 to 10 nM
//
compound: Cn1cc(-c2cc3c(N4CCN(c5ncc([C@](C)(N)c6ccccc6)cn5)CC4)ncnn3c2)cn1 [Compound 21]
value-kind: IC50
observed: 1.01 to 10 nM
//
compound: Cn1cc(-c2cc3c(N4CCN(c5ncc([C@](C)(O)c6ccc(F)cn6)cn5)CC4)ncnn3c2)cn1 [Compound 53]
value-kind: IC50
observed: 10 to 100 nM
//
compound: Cn1cc(-c2cc3c(N4CCN(c5ncc([C@@H](O)c6ccc(F)cc6)cn5)CC4)ncnn3c2)cn1 [Compound 31]
value-kind: IC50
observed: 1.01 to 10 nM
//
compound: C[C@H](c1ccccc1)c1cnc(N2CCN(c3ncnn4cc(-c5cnn(C)c5)cc34)CC2)nc1 [Compound 9]
value-kind: IC50
observed: 1.01 to 10 nM
//
compound: Cn1cc(-c2cc3c(N4CCN(c5ncc([C@@](C)(N)c6ccccc6)cn5)CC4)ncnn3c2)cn1 [Compound 22]
value-kind: IC50
observed: < 1 nM
//
compound: Cn1cc(-c2cn3ncnc(N4CCN(c5ncc(C(C)(O)c6ccc(F)cc6)cn5)CC4)c3c2Cl)cn1 (stereo in doubt) [Compound 107]
value-kind: IC50
observed: > 100 nM
